# Tested on: Escherichia coli TOP10;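 further: peptides expressed intracellularly from a pBAD plasmid library in pooled LB shake-flask culture, induced with 0.3% L-arabinose, DNA abundance read by NGS, three biological replicates, DESeq2 with apeglm shrinkage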
# Assay text: shrunken log2 fold change of peptide-encoding DNA abundance (4.5 h post-induction vs induction); higher = less antimicrobial activity (less host growth inhibition)
# Assay conditions: time post-induction: 4.5 h; library: site-saturation at positions 5, 18, 19, 20
Result type: shrunken log2 fold change

Input `RRIRARPPRLPRPRPRPVRQPRP` , output reported shrunken log2 fold change.
0.855

Input `RRIRKRPPRLPRPRPRPCFHPRP` , output reported shrunken log2 fold change.
-0.125

Input `RRIRKRPPRLPRPRPRPLWYPRP` , output reported shrunken log2 fold change.
-0.511

Input `RRIRKRPPRLPRPRPRPESSPRP` , output reported shrunken log2 fold change.
-0.000321

Input `RRIRSRPPRLPRPRPRPKPGPRP` , output reported shrunken log2 fold change.
0.283

Input `RRIRMRPPRLPRPRPRPLAHPRP` , output reported shrunken log2 fold change.
0.0417

Input `RRIRFRPPRLPRPRPRPQNRPRP` , output reported shrunken log2 fold change.
-0.536

Input `RRIRTRPPRLPRPRPRPWPKPRP` , output reported shrunken log2 fold change.
0.218
